# Test system: MRSA KS1
# EXPERIMENTAL_DETAILS: MIC, broth microdilution, MRSA KS1
# Format: cell-based, Staphylococcus aureus
# EXPERIMENTAL_CONTEXT: MRSA KS1; ratio of MIC of vancomycin and MIC of analogue
MIC-fold improvement vs. vancomycin overview
Kindly provide the number alone.

Some entries whose results are on file:
* CNC(CC(C)C)C(=O)NC1C(=O)NC(CC(N)=O)C(=O)NC2C(=O)NC3C(=O)NC(C(=O)NC(C(=O)NCCCNC(=O)c4cc5cc(F)ccc5[nH]4)c4cc(O)cc(O)c4-c4cc3ccc4O)C(O)c3ccc(c(Cl)c3)Oc3cc2cc(c3OC2OC(CO)C(O)C(O)C2OC2CC(C)(N)C(O)C(C)O2)Oc2ccc(cc2Cl)C1O (centres unmarked) | 2
* CN[C@H](CC(C)C)C(=O)N[C@H]1C(=O)N[C@@H](CC(N)=O)C(=O)N[C@H]2C(=O)N[C@H]3C(=O)N[C@H](C(=O)N[C@H](C(=O)NCC(=O)Nc4cc(C)cc(C)c4)c4cc(O)cc(O)c4-c4cc3ccc4O)[C@H](O)c3ccc(c(Cl)c3)Oc3cc2cc(c3O[C@@H]2O[C@H](CO)[C@@H](O)[C@H](O)[C@H]2O[C@H]2C[C@](C)(N)[C@H](O)[C@H](C)O2)Oc2ccc(cc2Cl)[C@H]1O | 1

Query: Read the entry CN[C@H](CC(C)C)C(=O)N[C@H]1C(=O)N[C@@H](CC(N)=O)C(=O)N[C@H]2C(=O)N[C@H]3C(=O)N[C@H](C(=O)N[C@H](C(=O)NCCNC(=O)CC(c4ccccc4)c4ccccc4)c4cc(O)cc(O)c4-c4cc3ccc4O)[C@H](O)c3ccc(c(Cl)c3)Oc3cc2cc(c3O[C@@H]2O[C@H](CO)[C@@H](O)[C@H](O)[C@H]2O[C@H]2C[C@](C)(N)[C@H](O)[C@H](C)O2)Oc2ccc(cc2Cl)[C@H]1O and write its reported MIC-fold improvement vs. vancomycin.
Reply: 2

====

# System: MRSA KS2
# EXPERIMENTAL_DETAILS: MIC, broth microdilution, MRSA KS2
# Type: cell-based, Staphylococcus aureus
# EXPERIMENTAL_CONTEXT: Staphylococcus aureus MRSA KS2; read-out: MIC
MEASUREMENT_KIND: MIC

Query: Read the entry CNC(CC(C)C)C(=O)NC1C(=O)NC(CC(N)=O)C(=O)NC2C(=O)NC3C(=O)NC(C(=O)NC(C(=O)NCC(=O)Nc4ccc(-c5ccc(Cl)cc5)cc4)c4cc(O)cc(O)c4-c4cc3ccc4O)C(O)c3ccc(c(Cl)c3)Oc3cc2cc(c3OC2OC(CO)C(O)C(O)C2OC2CC(C)(N)C(O)C(C)O2)Oc2ccc(cc2Cl)C1O (stereo not drawn) and write its reported MIC.
Reply: 0.10 µM

Query: Read the entry C#Cc1ccc(NC(=O)CNC(=O)C2NC(=O)C3NC(=O)C(NC(=O)C4NC(=O)C(CC(N)=O)NC(=O)C(NC(=O)C(CC(C)C)NC)C(O)c5ccc(c(Cl)c5)Oc5cc4cc(c5OC4OC(CO)C(O)C(O)C4OC4CC(C)(N)C(O)C(C)O4)Oc4ccc(cc4Cl)C3O)c3ccc(O)c(c3)-c3c(O)cc(O)cc32)cc1 (stereo not drawn) and write its reported MIC.
Reply: 0.39 µM

Query: Read the entry CN[C@H](CC(C)C)C(=O)N[C@H]1C(=O)N[C@@H](CC(N)=O)C(=O)N[C@H]2C(=O)N[C@H]3C(=O)N[C@H](C(=O)N[C@H](C(=O)NCC(=O)Nc4ccc(Cl)cc4)c4cc(O)cc(O)c4-c4cc3ccc4O)[C@H](O)c3ccc(c(Cl)c3)Oc3cc2cc(c3O[C@@H]2O[C@H](CO)[C@@H](O)[C@H](O)[C@H]2O[C@H]2C[C@](C)(N)[C@H](O)[C@H](C)O2)Oc2ccc(cc2Cl)[C@H]1O and write its reported MIC.
Reply: 0.39 µM

Where do these numbers come from? They come from paper PMC6001238.
